Tested on: HEK cells
PROCEDURE SUMMARY: Bleach rate in HEK cells
Assay type: cell-based, human
DETAILS: HEK cells, 7 W/cm^2
EXPERIMENTAL READOUT: bleach rate

CCCCN(CCCC)c1ccc2cc(/C=C/c3cc[n+](CCCS(=O)(=O)[O-])cc3)ccc2c1 [di-4-ANEPPS] :: 6.9±0.1×10^−2 s^−1
CCCCN(CCCC)c1ccc(/C=C/c2ccc(-c3c4cc(Cl)c(=O)cc-4oc4cc(O)c(Cl)cc34)c(S(=O)(=O)O)c2)cc1 [VF1.4.Cl] :: 3.9±0.1×10^−2 s^−1
CN(C)c1ccc(/C=C/c2ccc(/C=C/c3ccc(-c4c5cc(Cl)c(=O)cc-5oc5cc(O)c(Cl)cc45)c(S(=O)(=O)O)c3)cc2)cc1 [VF2.1.Cl] :: 8.0±0.1×10^−3 s^−1

Okay, next one:
Request: Give the reported value of bleach rate for this record: CCCCN(CCCC)c1ccc(/C=C/c2ccc(/C=C/c3ccc(-c4c5cc(Cl)c(=O)cc-5oc5cc(O)c(Cl)cc45)c(S(=O)(=O)O)c3)cc2)cc1 [VF2.4.Cl]
Result: 1.8±0.1×10^−2 s^−1
